# TESTED_SYSTEM: CDK9/CycT (Homo sapiens (Human))
# PROTOCOL_DESCRIPTION: CDK9/CycT kinase assay
For each record, write down the corresponding pIC50.
Answers are plain numbers, as −log10 of the molar value.

>>> endpoint_result("CN1CCN(c2ccc(Nc3nccc(N4CC(=O)NCC45CCCCC5)n3)nc2)CC1")
6.12
>>> endpoint_result("CN1CCN(c2ccc(Nc3nccc(N4C(=O)NCC45CCCCC5)n3)nc2)CC1")
5.02

Ask | Look up pIC50 for this compound: CN1CCN(c2ccc(Nc3nccc(N4CCNC(=O)C4)n3)nc2)CC1
Reply | 4.64

----------
# TESTED_SYSTEM: CDK5/p35 (Homo sapiens (Human), UniProt Q00535)
# Sequence (Q00535 whole entry): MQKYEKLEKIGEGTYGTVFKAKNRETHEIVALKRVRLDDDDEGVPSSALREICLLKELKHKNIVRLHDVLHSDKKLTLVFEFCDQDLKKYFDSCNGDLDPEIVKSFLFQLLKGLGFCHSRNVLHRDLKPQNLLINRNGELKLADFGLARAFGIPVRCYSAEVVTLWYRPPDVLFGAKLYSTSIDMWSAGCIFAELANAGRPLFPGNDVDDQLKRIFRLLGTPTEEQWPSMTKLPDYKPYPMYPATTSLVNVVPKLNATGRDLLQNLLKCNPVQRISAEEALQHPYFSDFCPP
# Sequence (Q15078 whole entry partner): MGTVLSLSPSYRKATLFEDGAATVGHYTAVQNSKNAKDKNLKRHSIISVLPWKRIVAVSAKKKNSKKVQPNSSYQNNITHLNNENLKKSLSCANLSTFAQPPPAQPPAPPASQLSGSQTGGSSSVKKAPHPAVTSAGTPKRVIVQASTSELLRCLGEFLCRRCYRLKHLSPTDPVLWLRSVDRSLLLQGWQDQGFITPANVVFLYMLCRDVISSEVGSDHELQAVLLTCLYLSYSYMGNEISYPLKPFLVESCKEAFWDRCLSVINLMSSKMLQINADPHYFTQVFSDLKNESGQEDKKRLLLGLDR
# PROTOCOL_DESCRIPTION: CDK5/p35 kinase assay
ASSAY_METRIC: IC50

Worked examples, 3 compounds total:
>>> endpoint_result("CN1CCN(c2ccc(Nc3nccc(N4C(=O)N(Cc5ccccc5)CC45CCCCC5)n3)nc2)CC1")
"> 100 µM"
>>> endpoint_result("CN1CCN(c2ccc(Nc3nccc(N4C(c5ccsc5)=NCC45CCCCC5)n3)nc2)CC1")
"> 100 µM"
>>> endpoint_result("CN1CCN(c2ccc(Nc3nccc(N4C(c5ccoc5)=NCC45CCCCC5)n3)nc2)CC1")
"> 100 µM"

Can you give me IC50 for all of these, one by one?
1. CN1CCN(c2ccc(Nc3nccc(N4C(c5ccccc5)=NCC45CCCCC5)n3)nc2)CC1
2. CN1CCN(c2ccc(Nc3nccc(N4C(=O)NCC45CCCCC5)n3)nc2)CC1
3. CN1CCN(c2ccc(Nc3nccc(N4CCNC4=O)n3)nc2)CC1
4. CN1CCN(c2ccc(Nc3nccc(N4CC(=O)NCC45CCCCC5)n3)nc2)CC1
5. CN1CCN(c2ccc(Nc3nccc(N4C(=O)N(C)CC45CCCCC5)n3)nc2)CC1

Reply |
["> 100 µM", "> 100 µM", "73 µM", "38 µM", "> 100 µM"]

----------
# TESTED_SYSTEM: CDK9/CycT (Homo sapiens (Human), UniProt P50750)
# Sequence (P50750 whole entry): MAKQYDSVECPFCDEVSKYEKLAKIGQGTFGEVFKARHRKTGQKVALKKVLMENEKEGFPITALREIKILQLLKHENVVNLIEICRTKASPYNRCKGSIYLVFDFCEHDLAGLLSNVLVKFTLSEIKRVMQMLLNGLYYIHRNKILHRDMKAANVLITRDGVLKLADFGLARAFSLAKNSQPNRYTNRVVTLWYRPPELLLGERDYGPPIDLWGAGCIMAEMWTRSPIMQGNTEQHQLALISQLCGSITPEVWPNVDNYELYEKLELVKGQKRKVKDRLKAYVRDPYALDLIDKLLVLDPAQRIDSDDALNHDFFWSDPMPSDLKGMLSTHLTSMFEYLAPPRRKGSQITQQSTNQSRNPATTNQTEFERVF
# Sequence (O60563 whole entry partner): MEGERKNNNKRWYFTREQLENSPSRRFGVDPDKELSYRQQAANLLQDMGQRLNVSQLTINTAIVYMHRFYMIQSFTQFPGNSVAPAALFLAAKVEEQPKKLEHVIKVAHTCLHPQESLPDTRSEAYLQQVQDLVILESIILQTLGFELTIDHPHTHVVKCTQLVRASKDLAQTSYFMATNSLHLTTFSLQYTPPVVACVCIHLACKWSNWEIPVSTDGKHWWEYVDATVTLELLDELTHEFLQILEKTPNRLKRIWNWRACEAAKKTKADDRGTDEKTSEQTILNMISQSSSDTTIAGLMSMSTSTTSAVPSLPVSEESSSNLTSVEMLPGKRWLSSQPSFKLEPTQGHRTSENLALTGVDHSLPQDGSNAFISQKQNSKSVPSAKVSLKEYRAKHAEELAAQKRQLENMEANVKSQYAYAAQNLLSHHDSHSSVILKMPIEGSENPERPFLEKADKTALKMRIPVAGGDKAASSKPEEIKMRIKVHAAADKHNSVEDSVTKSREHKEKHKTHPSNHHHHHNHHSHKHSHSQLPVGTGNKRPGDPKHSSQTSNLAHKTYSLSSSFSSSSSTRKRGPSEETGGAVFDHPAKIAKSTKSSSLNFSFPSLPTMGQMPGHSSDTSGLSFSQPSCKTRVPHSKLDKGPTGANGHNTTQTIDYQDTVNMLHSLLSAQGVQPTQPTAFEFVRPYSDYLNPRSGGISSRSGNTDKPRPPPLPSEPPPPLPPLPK
# PROTOCOL_DESCRIPTION: CDK9/CycT kinase assay
For each record, write down the corresponding IC50.

Worked examples, 3 molecules total:
>>> endpoint_result("CN1CCN(c2ccc(Nc3nccc(N4C(=O)N(Cc5ccccc5)CC45CCCCC5)n3)nc2)CC1")
"> 100 µM"
>>> endpoint_result("CN1CCN(c2ccc(Nc3nccc(N4CCNC4=O)n3)nc2)CC1")
"9.3 µM"
>>> endpoint_result("CN1CCN(c2ccc(Nc3nccc(N4C(=O)N(C)CC45CCCCC5)n3)nc2)CC1")
"> 100 µM"

Okay, next one:
Ask | Look up IC50 for this molecule: CN1CCN(c2ccc(Nc3nccc(N4C(c5ccoc5)=NCC45CCCCC5)n3)nc2)CC1
Reply | > 100 µM

----------
# TESTED_SYSTEM: CDK5/p25 (Homo sapiens (Human))
# PROTOCOL_DESCRIPTION: CDK5/p25 kinase assay
pIC50: −log10 of the molar value.
ASSAY_METRIC: pIC50

Worked examples, 3 molecules total:
>>> endpoint_result("CN1CCN(c2ccc(Nc3nccc(N4C(c5ccoc5)=NCC45CCCCC5)n3)nc2)CC1 [compound 54]")
"< 4.00"
>>> endpoint_result("CN1CCN(c2ccc(Nc3nccc(N4CCNC4=O)n3)nc2)CC1 [compound 16]")
4.02
>>> endpoint_result("CN1CCN(c2ccc(Nc3nccc(N4C(c5ccccc5)=NCC45CCCCC5)n3)nc2)CC1 [compound 53]")
"< 4.00"

Okay, next one:
Ask | Look up pIC50 for this molecule: CN1CCN(c2ccc(Nc3nccc(N4C(c5ccsc5)=NCC45CCCCC5)n3)nc2)CC1 [compound 55]
Reply | < 4.00

----------
# TESTED_SYSTEM: CDK7/CycH/MAT1 (Homo sapiens (Human), UniProt P50613)
# Sequence (P50613 whole entry): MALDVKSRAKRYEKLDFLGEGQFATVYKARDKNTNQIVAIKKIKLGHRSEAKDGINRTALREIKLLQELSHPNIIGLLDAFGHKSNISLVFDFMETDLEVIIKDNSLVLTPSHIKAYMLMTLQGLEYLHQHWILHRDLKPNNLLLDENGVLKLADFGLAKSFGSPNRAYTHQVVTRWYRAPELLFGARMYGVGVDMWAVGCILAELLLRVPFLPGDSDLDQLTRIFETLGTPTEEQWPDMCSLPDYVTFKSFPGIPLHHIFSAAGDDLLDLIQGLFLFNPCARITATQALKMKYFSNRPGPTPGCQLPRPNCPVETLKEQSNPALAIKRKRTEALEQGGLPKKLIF
# Sequence (P51946 whole entry partner): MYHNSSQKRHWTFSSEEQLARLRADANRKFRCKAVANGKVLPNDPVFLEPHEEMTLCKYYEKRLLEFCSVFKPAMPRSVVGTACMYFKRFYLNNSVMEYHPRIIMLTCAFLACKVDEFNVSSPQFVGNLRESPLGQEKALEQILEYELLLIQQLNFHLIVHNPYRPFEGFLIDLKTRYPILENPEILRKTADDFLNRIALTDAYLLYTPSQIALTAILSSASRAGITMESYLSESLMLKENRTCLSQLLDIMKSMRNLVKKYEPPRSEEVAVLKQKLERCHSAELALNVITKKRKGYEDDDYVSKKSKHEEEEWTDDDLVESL
# Sequence (P51948 whole entry partner): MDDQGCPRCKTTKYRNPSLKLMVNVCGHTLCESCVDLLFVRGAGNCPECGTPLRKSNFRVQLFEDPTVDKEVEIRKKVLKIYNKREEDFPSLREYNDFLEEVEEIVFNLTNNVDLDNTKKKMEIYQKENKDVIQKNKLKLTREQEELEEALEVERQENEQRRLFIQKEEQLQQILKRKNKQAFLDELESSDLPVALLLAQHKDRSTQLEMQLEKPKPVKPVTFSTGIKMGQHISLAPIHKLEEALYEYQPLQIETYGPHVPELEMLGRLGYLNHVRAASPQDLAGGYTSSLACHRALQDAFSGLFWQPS
# PROTOCOL_DESCRIPTION: CDK7/CycH/MAT1 kinase assay
For each record, write down the corresponding IC50.

Worked examples, 7 compounds total:
>>> endpoint_result("CN1CCN(c2ccc(Nc3nccc(N4CC(=O)NCC45CCCCC5)n3)nc2)CC1 [compound 20]")
"> 100 µM"
>>> endpoint_result("CN1CCN(c2ccc(Nc3nccc(N4C(=O)NCC45CCCCC5)n3)nc2)CC1 [compound 6]")
"95.9 µM"
>>> endpoint_result("CN1CCN(c2ccc(Nc3nccc(N4CCNC4=O)n3)nc2)CC1 [compound 16]")
"29.4 µM"
>>> endpoint_result("CN1CCN(c2ccc(Nc3nccc(N4C(c5ccoc5)=NCC45CCCCC5)n3)nc2)CC1 [compound 54]")
"> 100 µM"
>>> endpoint_result("CN1CCN(c2ccc(Nc3nccc(N4C(c5ccccc5)=NCC45CCCCC5)n3)nc2)CC1 [compound 53]")
"> 100 µM"
>>> endpoint_result("CN1CCN(c2ccc(Nc3nccc(N4C(=O)N(Cc5ccccc5)CC45CCCCC5)n3)nc2)CC1 [compound 10]")
"> 100 µM"
>>> endpoint_result("CN1CCN(c2ccc(Nc3nccc(N4C(=O)N(C)CC45CCCCC5)n3)nc2)CC1 [compound 8]")
"> 100 µM"

Ask | Look up IC50 for this compound: CN1CCN(c2ccc(Nc3nccc(N4C(c5ccsc5)=NCC45CCCCC5)n3)nc2)CC1 [compound 55]
Reply | > 100 µM

----------
# TESTED_SYSTEM: CDK2/CycE (Homo sapiens (Human))
# PROTOCOL_DESCRIPTION: CDK2/CycE kinase assay (Caliper microfluidic)
# PROTOCOL_CONDITIONS: at Km for ATP
pIC50: −log10 of the molar value.
For each record, write down the corresponding pIC50.

Worked examples, 2 compounds total:
>>> endpoint_result("CC[C@H]1CC(=O)NN1c1ccnc(Nc2ccc(N3CCN(C)CC3)cn2)n1")
"< 4.00"
>>> endpoint_result("CN1CCN(c2ccc(Nc3nccc(N4C(c5ccccc5)=NCC45CCCCC5)n3)nc2)CC1")
"< 4.00"

Can you give me pIC50 for all of these, one by one?
1. CN1CCN(c2ccc(Nc3nccc(N4CCNC4=O)n3)nc2)CC1
2. C[C@H]1CNC(=O)CN1c1ccnc(Nc2ccc(N3CCN(C)CC3)cn2)n1

Reply |
["< 4.00", 4.15]

----------
# TESTED_SYSTEM: CDK4/CycD (Homo sapiens (Human))
# Sequence (P11802 whole entry): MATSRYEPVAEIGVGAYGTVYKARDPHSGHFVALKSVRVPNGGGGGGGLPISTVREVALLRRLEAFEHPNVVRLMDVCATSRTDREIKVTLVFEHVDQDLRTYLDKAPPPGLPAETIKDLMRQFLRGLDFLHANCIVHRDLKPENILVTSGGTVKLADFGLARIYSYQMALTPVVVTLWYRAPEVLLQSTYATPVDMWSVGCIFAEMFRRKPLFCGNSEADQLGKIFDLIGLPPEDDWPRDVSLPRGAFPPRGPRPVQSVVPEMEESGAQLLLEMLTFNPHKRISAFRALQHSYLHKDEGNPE
# Sequence (P24385 whole entry partner): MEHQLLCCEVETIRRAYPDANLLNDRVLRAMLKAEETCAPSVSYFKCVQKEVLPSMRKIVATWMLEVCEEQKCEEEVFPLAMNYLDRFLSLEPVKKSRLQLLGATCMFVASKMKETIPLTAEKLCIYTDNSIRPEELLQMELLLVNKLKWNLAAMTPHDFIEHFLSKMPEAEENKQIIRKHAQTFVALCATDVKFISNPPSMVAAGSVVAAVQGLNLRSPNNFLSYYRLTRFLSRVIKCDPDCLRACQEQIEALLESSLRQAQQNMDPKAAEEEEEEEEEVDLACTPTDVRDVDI
# PROTOCOL_DESCRIPTION: CDK4/CycD kinase assay (Caliper microfluidic)
# PROTOCOL_CONDITIONS: at Km for ATP
For each record, write down the corresponding IC50.
Numbers only, in nM.

Worked examples, 6 compounds total:
>>> endpoint_result("CN1CCN(c2ccc(Nc3nccc(N4C(=O)N(C)CC45CCCCC5)n3)nc2)CC1 [compound 8]")
3270
>>> endpoint_result("CN1CCN(c2ccc(Nc3nccc(N4CC(=O)NCC45CCCCC5)n3)nc2)CC1 [compound 20]")
440
>>> endpoint_result("CN1CCN(c2ccc(Nc3nccc(N4C(=O)N(Cc5ccccc5)CC45CCCCC5)n3)nc2)CC1 [compound 10]")
2710
>>> endpoint_result("CN1CCN(c2ccc(Nc3nccc(N4CCNC(=O)C4)n3)nc2)CC1 [compound 32]")
14400
>>> endpoint_result("CC(C)[C@H]1CNC(=O)N1c1ccnc(Nc2ccc(N3CCN(C)CC3)cn2)n1 [compound 46]")
761
>>> endpoint_result("CC[C@H]1CC(=O)NN1c1ccnc(Nc2ccc(N3CCN(C)CC3)cn2)n1 [compound 56]")
4000

Okay, next one:
Ask | Look up IC50 for this compound: C[C@H]1CNC(=O)CN1c1ccnc(Nc2ccc(N3CCN(C)CC3)cn2)n1 [compound 40]
Reply | 1700

----------
For each record, write down the corresponding pIC50.
# TESTED_SYSTEM: CDK2/CycA (Homo sapiens (Human), UniProt P24941)
# PROTOCOL_DESCRIPTION: CDK2/CycA kinase assay (Caliper microfluidic)
# PROTOCOL_CONDITIONS: at Km for ATP
# Protocol: Selected compounds disclosed herein were tested in CDK4/cyclinD1, CDK2/CycA and CDK2/cyclinE kinase assays by Nanosyn (Santa Clara, Calif.) to determine their inhibitory effect on these CDKs. The assays were performed using microfluidic kinase detection technology (Caliper Assay Platform). The compounds were tested in 12-point dose-response format in singlicate at Km for ATP. […]
pIC50: −log10 of the molar value.

Worked examples, 3 compounds total:
>>> endpoint_result("CC[C@H]1CC(=O)NN1c1ccnc(Nc2ccc(N3CCN(C)CC3)cn2)n1")
"< 4.00"
>>> endpoint_result("CN1CCN(c2ccc(Nc3nccc(N4C(c5ccccc5)=NCC45CCCCC5)n3)nc2)CC1")
"< 4.00"
>>> endpoint_result("CN1CCN(c2ccc(Nc3nccc(N4C(=O)N(Cc5ccccc5)CC45CCCCC5)n3)nc2)CC1")
"< 4.00"

Can you give me pIC50 for all of these, one by one?
1. CN1CCN(c2ccc(Nc3nccc(N4CCNC4=O)n3)nc2)CC1
2. CN1CCN(c2ccc(Nc3nccc(N4CC(=O)NCC45CCCCC5)n3)nc2)CC1
3. CN1CCN(c2ccc(Nc3nccc(N4C(=O)NCC45CCCCC5)n3)nc2)CC1

Reply |
< 4.00
< 4.00
< 4.00

Can you give me pIC50 for all of these, one by one?
1. CC(C)[C@H]1CNC(=O)N1c1ccnc(Nc2ccc(N3CCN(C)CC3)cn2)n1
2. CN1CCN(c2ccc(Nc3nccc(N4C(=O)N(C)CC45CCCCC5)n3)nc2)CC1
3. C[C@H]1CNC(=O)CN1c1ccnc(Nc2ccc(N3CCN(C)CC3)cn2)n1
4. CN1CCN(c2ccc(Nc3nccc(N4C(c5ccsc5)=NCC45CCCCC5)n3)nc2)CC1
5. C[C@H]1CNC(=O)N1c1ccnc(Nc2ccc(N3CCN(C)CC3)cn2)n1

Reply |
5.01
< 4.00
4.06
< 4.00
4.45

Ask | Look up pIC50 for this compound: CN1CCN(c2ccc(Nc3nccc(N4C(c5ccoc5)=NCC45CCCCC5)n3)nc2)CC1
Reply | < 4.00
